Measurement target: human telomerase (Homo sapiens)
Construct: telomerase in S100 extracts of transformed human fetal kidney tumor 293 cells (a processive telomerase); endogenous in cells; host or cells: human cells, (S100 extract)
Sequence (O14746 whole entry): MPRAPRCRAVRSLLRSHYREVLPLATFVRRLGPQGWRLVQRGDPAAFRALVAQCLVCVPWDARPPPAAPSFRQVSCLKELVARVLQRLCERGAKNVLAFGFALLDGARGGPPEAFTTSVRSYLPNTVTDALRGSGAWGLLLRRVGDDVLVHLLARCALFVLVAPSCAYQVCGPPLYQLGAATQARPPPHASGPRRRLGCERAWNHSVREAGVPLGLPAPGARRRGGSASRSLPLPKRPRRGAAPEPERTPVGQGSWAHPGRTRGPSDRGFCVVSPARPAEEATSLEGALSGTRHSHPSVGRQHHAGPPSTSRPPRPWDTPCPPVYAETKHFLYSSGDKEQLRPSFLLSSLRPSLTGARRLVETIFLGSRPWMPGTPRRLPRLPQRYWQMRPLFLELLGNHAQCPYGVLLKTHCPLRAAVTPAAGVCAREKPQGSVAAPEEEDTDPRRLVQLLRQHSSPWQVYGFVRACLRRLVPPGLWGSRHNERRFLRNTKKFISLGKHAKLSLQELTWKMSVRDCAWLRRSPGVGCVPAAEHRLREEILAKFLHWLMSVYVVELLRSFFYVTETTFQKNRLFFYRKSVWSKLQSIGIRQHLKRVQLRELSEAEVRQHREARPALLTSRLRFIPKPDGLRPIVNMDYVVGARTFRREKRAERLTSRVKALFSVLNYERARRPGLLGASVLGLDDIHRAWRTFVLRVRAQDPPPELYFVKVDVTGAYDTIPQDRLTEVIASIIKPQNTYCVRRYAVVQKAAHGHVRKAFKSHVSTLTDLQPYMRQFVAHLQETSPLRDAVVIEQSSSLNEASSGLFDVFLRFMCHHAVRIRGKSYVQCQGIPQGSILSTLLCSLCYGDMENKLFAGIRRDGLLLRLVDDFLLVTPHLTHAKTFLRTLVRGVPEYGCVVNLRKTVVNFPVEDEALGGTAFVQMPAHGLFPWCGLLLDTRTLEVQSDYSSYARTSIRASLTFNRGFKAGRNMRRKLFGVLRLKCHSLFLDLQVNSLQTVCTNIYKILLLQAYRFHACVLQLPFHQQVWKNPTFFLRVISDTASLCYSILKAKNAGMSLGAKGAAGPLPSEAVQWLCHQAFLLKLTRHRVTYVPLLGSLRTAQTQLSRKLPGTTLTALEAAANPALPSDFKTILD
Sequence (O60832 whole entry partner): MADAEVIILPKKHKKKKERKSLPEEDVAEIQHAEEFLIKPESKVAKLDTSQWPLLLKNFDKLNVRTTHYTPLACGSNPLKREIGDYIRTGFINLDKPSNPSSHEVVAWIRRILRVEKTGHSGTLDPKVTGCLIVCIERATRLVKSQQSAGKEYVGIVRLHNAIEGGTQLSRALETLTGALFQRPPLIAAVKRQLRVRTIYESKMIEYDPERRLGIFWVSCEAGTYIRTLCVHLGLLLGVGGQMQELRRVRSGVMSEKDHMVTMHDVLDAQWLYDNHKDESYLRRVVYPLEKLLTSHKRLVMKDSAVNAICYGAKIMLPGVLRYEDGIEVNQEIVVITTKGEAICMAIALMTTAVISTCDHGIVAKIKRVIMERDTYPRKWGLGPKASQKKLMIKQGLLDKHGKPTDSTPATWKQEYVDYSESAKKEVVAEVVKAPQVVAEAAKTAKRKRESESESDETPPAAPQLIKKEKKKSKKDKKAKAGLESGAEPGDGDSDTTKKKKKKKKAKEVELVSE
Sequence (Q9NPE3 whole entry partner): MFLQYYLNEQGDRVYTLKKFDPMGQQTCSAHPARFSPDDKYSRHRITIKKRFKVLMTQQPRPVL
Sequence (Q9NX24 whole entry partner): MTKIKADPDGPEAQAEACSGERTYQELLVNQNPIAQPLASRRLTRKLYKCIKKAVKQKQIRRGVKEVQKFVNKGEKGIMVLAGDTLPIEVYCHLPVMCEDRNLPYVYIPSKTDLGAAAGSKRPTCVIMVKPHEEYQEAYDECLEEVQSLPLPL
Sequence (Q9NY12 whole entry partner): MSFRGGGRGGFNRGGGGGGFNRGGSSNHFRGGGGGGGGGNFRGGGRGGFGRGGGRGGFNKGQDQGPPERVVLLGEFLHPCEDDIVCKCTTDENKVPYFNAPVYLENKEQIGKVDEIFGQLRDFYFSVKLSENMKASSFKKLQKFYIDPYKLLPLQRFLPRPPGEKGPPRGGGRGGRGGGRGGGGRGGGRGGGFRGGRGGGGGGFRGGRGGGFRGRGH
Test description: Cell-free telomerase inhibition, conventional or modified assay not stated
Assay type: biochemical
Condition set: Summary values; assay variant not stated; read-out: IC50
Exercise: state measured IC50 for each of the compounds provided.
Please format your answer as a value with the unit trailing.

Look over these answered cases.
{"Compound": "Nc1nc2c(ncn2[C@H]2C[C@H](O)[C@@H](COP(=O)(O)OP(=O)(O)CP(=O)(O)O)O2)c(=O)[nH]1", "IC50": "102 µM"}
{"Compound": "Nc1nc2c(ccn2[C@H]2C[C@H](O)[C@@H](COP(=O)(O)OP(=O)(O)OP(=O)(O)O)O2)c(=O)[nH]1", "IC50": "6.8 µM"}
{"Compound": "Nc1nc2c(ncn2[C@H]2C[C@H](O)[C@@H](COP(O)(=S)OP(=O)(O)OP(=O)(O)O)O2)c(=O)[nH]1 (stereo partly shown)", "IC50": "81.5 µM"}

Next compound, IC50 to be filled in.
What does the record list as IC50 for Nc1ncnc2c1ccn2[C@H]1C[C@H](O)[C@@H](COP(=O)(O)OP(=O)(O)OP(=O)(O)O)O1 ?
78.5 µM

----------
Test system: human colon carcinoma HT29 cells
Test description: Growth inhibition (MTT), HT29 cells
Type: cell-based
Condition set: HT-29, 144 h, 6 days
Exercise: state measured pIC50 for each of the compounds provided.
Numbers only, as −log10 of the molar value.

Look over these answered cases.
{"Smiles data": "Cc1cn([C@H]2C[C@H](O)[C@@H](CO)O2)c2nc(N)[nH]c(=O)c12", "pIC50": 3.71}
{"Smiles data": "Nc1ncnc2c1ccn2[C@H]1C[C@H](O)[C@@H](CO)O1", "pIC50": 3.83}
{"Smiles data": "Cn1c(N)nc2c(ccn2[C@H]2C[C@H](O)[C@@H](CO)O2)c1=S", "pIC50": 3.51}
{"Smiles data": "Nc1nc2c(c(Br)cn2[C@H]2C[C@H](O)[C@@H](CO)O2)c(=O)[nH]1", "pIC50": 3.77}
{"Smiles data": "N#Cc1cn([C@H]2C[C@H](O)[C@@H](CO)O2)c2ncnc(N)c12", "pIC50": 4.29}

For each of the items listed, what is its pIC50?
1. Cc1cn([C@H]2C[C@H](O)[C@@H](CO)O2)c2ncnc(N)c12
2. Nc1ncnc2c1c(I)cn2[C@H]1C[C@H](O)[C@@H](CO)O1

1: 4.00; 2: 5.73

----------
Exercise: state measured pIC50 for each of the molecules provided.
Measurement target: human 293 cell telomerase (Homo sapiens)
Construct: with 20 μl of S100 enzyme extract; endogenous in cells; host or cells: 293 cells (transformed human embryonic kidney), S100 extract
Sequence (O14746 whole entry): as the sequence (O14746 whole entry) above
Sequence (O60832 whole entry partner): as the sequence (O60832 whole entry partner) above
Sequence (Q9NPE3 whole entry partner): as the sequence (Q9NPE3 whole entry partner) above
Sequence (Q9NX24 whole entry partner): as the sequence (Q9NX24 whole entry partner) above
Sequence (Q9NY12 whole entry partner): as the sequence (Q9NY12 whole entry partner) above
Test description: Conventional telomerase assay (32P-dGTP as radiolabel substrate)
Format: biochemical
Condition set: 293 cell telomerase
Procedure: Telomerase was prepared from transformed human embryonic kidney 293 cell line. […] The assay is based on the ability of the telomerase enzyme in the S100 fractions to recognize an 18-base DNA primer with the DNA sequence (TTAGGG)3. […] By reading from its complementary internal RNA template, telomerase adds a repeated set of 5′-TTAGGG-3′ to the original 18-base primer. […]
pIC50: −log10 of the molar value.

{"Molecule": "Nc1nc2c(ncn2[C@H]2C[C@H](O)[C@@H](COP(O)(=S)OP(=O)(O)OP(=O)(O)O)O2)c(=O)[nH]1 (some centres unmarked) [NA013]", "Result": "> 3.90"}

Next molecule, pIC50 to be filled in.
What does the record list as pIC50 for Nc1nc2c(ncn2[C@H]2C[C@H](O)[C@@H](COP(=O)(O)OP(=O)(O)CP(=O)(O)O)O2)c(=O)[nH]1 [NA014] ?
> 3.90
